- assay-remarks: protein stability index of a GFP-peptide fusion (GPS, HEK-293T) (PSI 1-6); higher = more stable;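 also: 24-mer peptide tiles fused after GFP, lentivirally expressed, FACS-sorted into six equal bins by GFP/DsRed ratio, decoded by Illumina sequencing, PSI is the read-weighted mean bin number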
- condition-set: treatment: MLN4924 1 uM, 8 h; c terminus: a fixed tail appended
protein stability index overview

RAILYPCHGMSSQLVRYSADGLLQ [GALNT9] : 2.76
FATRPGAIETAMEDLKGHVAETSG [TPRG1] : 4.81
SLLDELMEVQHFRTIYHMFIAGLC [SOAT2] : 2.49
HWPQGPTGPPGPPGPMGPPGPPGP [EMID1] : 4.73
MQLPPALCARLAAGPGAAEPLPVE [ZNF511] : 3.86
VFSFDLHEPLSKERVEAFSDGVYA [TMEM175] : 3.24
KVAKLLGYSTHADFVLEMNTAKST [NLN] : 2.35
MCVAQVLTAHLLPPRQALGSLCSP [YPEL3] : 2.8

*Q* What value of measured protein stability index is listed for MAPVMAHVDPEEPWSPCSARFITD [ADAMTS4] ?
*A* 3.85

*Q* What value of measured protein stability index is listed for LTKTFQGPAVVCGTPTSHVYMFKN [LYSMD4] ?
*A* 2.63

FYI, the data here is from the supplement of paper PMC10567573.
